PROTOCOL_SUMMARY: in vivo
ASSAY_CONDITIONS: male, Sprague-Dawley, rat, AR Kidney, Median (IQR), rats
ENDPOINT_NAME: Kp
Enter a number only.

// Kp lookup, key: CC(C)(C)[C@H](NC(=O)C(F)(F)F)C(=O)N1C[C@H]2[C@@H]([C@H]1C(=O)N[C@H](C#N)C[C@@H]1CCNC1=O)C2(C)C
1.71

----------
PROTOCOL_SUMMARY: in vivo
ASSAY_CONDITIONS: male, Sprague-Dawley, rat, po, NMR CSF concentrations as % of those in plasma, ratio of Cmax or AUC, oral NMR/RTV twice daily for five days
ENDPOINT_NAME: Kp

Data request, read-out Kp, for CC(C)(C)[C@H](NC(=O)C(F)(F)F)C(=O)N1C[C@H]2[C@@H]([C@H]1C(=O)N[C@H](C#N)C[C@@H]1CCNC1=O)C2(C)C [NMR, nirmatrelvir]
0.15 to 0.18
